- Tested on: NCI/ADR-RES ovarian
- experiment.notes: NCI-60 one-dose screen, 48 h (100 = growth as untreated, 0 = no growth, -100 = all killed)
- experimental.parameters: 10 µM unless noted
This is part of a sample that, as a whole, favours compounds with a hit. Of some 83,000 tested, about 20% had one in any assay.
measured.parameter: growth (%)
Numbers only, in %.

COC(=O)[C@H]1[C@H](OC)[C@@H](OC(=O)/C=C/c2ccncc2)CC2CN3CCc4c([nH]c5cc(OC)ccc45)[C@@H]3C[C@@H]21 (stereo partly specified): 81.8
CCCCCCCCCCCCOB(OCCCCCCCCCCCC)OCCCCCCCCCCCC: 97.6
O=C(CCCn1c2c(sc3ccccc32)c(=O)n2nnc(-c3ccccc3)c12)NCCc1cnc[nH]1: 21.2
O=[N+]([O-])c1ccc(S(=O)(=O)N2CCN(c3ccnc4cc(Cl)ccc34)CC2)c([N+](=O)[O-])c1: 95.5
Cc1ccccc1C(=O)c1ccccc1C(=O)O: 108

Please state, for each entry, its recorded growth.
1. Cc1ccc2c(c1)ncn2-c1ncnc2c1CC(C)c1ccccc1N2C (stereo unspecified)
2. CC[C@H](C)[C@@H]1NC(=O)[C@H]([C@@H](C)O)NC(=O)C(Cc2ccccc2)NC(=O)[C@@H]2CCCN2C(=O)C(C(C)C)NC(=O)C(Cc2ccccc2)NC(=O)CNC(=O)[C@@H]2CCCN2C1=O (stereo partly specified)
3. Cc1cnc(NC(=O)C(Cc2ccccc2)NC(=O)c2ccccc2)s1 (stereo unspecified)
4. CCN(CC)P(=O)(N(CC)CC)N(CCCSC/C=C(\C)CC/C=C(\C)CCC=C(C)C)CCCN1CCN(C)CC1
5. CC(C)[C@H](CO)Nc1nc(Nc2ccc(C(=O)NCCNS(=O)(=O)c3cccc4c(N(C)C)cccc34)c(Cl)c2)c2ncn(C(C)C)c2n1
6. Cc1cc(Nc2nc(C(=O)Nc3ccccc3)nc3ccccc23)n[nH]1
7. Clc1ccc(-c2nc(-c3ccco3)cn3ccnc23)cc1
8. Nc1ccccc1C#C/C=C\C#Cc1cccc(O)c1

Response given:
1. 17.1
2. 64.5
3. 65.6
4. 106
5. 94.5
6. 44.2
7. 70.1
8. 31.8

Each of the following entries comes with a recorded value; kindly state growth for each.
1. CC(=O)OC[Si](C)(C)c1ccccc1
2. CC(C)C[C@H](NC(=O)[C@@H](Cc1ccccc1)n1ccc(Nc2ccccc2)cc1=O)B(O)O
3. CCn1cc(C2NC(=O)c3cc(F)ccc3N2)c2cccc(Cl)c21 (stereo unspecified)
4. O=C1CCC(=O)N1Cc1ccccc1
5. CC(C)C(C(=O)CCN(C)C)c1ccc(Cl)cc1 (stereo unspecified)

Response given:
1: 112; 2: 75; 3: 1.68; 4: 89.8; 5: 106
